# MEASUREMENT_TARGET: human ether-à-go-go-related gene (hERG) potassium channel (human);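 also: peak tail current of the secondary pulse compared with the same well before compound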
# TEST_METHOD_NOTES: primary screen, population patch clamp on CHO cells stably expressing hERG; higher = less effect of the substance
In all, about 310,000 compounds went through this assay and about 14,000 (4.5%) showed an effect of 50% or more. Effects have a minus sign here. Only a selection was taken, and strong results are over-represented in it overall.
ENDPOINT_LABEL: hERG current change (%, negative = inhibition) at 10uM (%)
State just the number; it will be interpreted in %.

{"MOLECULE": "COc1ccc(C(=O)NNc2cc(C)nc(NNC(=O)c3ccc(OC)cc3)n2)cc1", "OBSERVED_RESULT": 7.94}

INPUT: Param item = CCC1CCCCN1CCCNC(=O)C1CCC(CNS(=O)(=O)c2c(C)cc(C)cc2C)CC1 (stereo not shown) ; retrieve measured hERG current change (%, negative = inhibition) at 10uM.
OUTPUT: -68.3

INPUT: What would you report for `CCOc1ccc(NC(=O)NCCN2CCN(c3cccc(C)c3C)CC2)cc1` ?
OUTPUT: -24.3

INPUT: What would you report for `CN1CCN(CCCNC(=O)Nc2ccc([N+](=O)[O-])cc2)CC1` ?
OUTPUT: -7.46

###

# MEASUREMENT_TARGET: human ether-à-go-go-related gene (hERG) potassium channel (human, UniProt Q12809);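 also: peak tail current of the secondary pulse compared with the same well before compound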
# Sequence (Q12809 whole entry, looked up): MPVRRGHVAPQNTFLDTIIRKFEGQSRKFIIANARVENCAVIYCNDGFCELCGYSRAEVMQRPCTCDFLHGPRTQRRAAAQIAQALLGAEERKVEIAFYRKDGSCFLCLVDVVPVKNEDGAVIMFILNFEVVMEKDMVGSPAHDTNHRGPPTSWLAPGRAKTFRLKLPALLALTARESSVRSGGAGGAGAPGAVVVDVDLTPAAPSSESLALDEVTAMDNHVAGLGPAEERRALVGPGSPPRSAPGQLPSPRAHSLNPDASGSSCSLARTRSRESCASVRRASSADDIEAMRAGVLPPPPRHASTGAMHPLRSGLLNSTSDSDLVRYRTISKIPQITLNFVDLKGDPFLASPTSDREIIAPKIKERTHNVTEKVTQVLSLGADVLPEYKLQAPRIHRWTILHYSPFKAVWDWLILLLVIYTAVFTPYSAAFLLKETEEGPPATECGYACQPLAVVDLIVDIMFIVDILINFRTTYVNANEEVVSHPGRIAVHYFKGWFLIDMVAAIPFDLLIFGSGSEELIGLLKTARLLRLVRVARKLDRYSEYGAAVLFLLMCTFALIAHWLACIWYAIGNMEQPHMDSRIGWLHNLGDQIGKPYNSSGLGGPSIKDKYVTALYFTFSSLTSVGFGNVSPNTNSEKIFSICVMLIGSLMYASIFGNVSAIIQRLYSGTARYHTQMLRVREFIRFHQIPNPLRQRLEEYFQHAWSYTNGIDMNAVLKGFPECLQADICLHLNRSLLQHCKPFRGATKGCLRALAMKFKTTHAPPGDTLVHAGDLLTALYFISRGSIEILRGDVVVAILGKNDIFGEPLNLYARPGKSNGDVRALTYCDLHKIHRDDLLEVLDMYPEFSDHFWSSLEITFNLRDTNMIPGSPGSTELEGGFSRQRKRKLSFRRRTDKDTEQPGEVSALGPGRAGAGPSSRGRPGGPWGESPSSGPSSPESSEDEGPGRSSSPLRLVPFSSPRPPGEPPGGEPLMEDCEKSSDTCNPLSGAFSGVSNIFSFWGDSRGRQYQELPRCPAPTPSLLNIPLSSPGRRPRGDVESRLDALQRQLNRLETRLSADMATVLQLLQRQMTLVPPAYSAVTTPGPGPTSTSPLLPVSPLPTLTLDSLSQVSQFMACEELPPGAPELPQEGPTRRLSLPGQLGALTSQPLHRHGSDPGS
# TEST_METHOD_NOTES: primary screen, population patch clamp on CHO cells stably expressing hERG; higher = less effect of the substance
Among all 310,000 compounds or so, about 14,000 (4.5%) showed an effect of 50% or more. The effect is printed as a negative number. This excerpt belongs to a sample that is enriched for strong results.
ENDPOINT_LABEL: hERG current change (%, negative = inhibition) at 10uM

{"COMPOUND": "CCOc1ccccc1CN1CCN(Cc2ccon2)CC1CCO (stereo not shown)", "MEASUREMENT_TARGET": "human ether-à-go-go-related gene (hERG) potassium channel (human, UniProt Q12809)", "OBSERVED_RESULT": "-42.6%"}
{"COMPOUND": "CCOc1ccccc1N(CC(=O)NC1CCCCC1)S(=O)(=O)c1ccc(C)cc1", "MEASUREMENT_TARGET": "human ether-à-go-go-related gene (hERG) potassium channel (human, UniProt Q12809)", "OBSERVED_RESULT": "-7.2%"}
{"COMPOUND": "CC(C)N1CCN(Cc2cccc3nonc23)CC1CCO (stereo not shown)", "MEASUREMENT_TARGET": "human ether-à-go-go-related gene (hERG) potassium channel (human, UniProt Q12809)", "OBSERVED_RESULT": "1.05%"}
{"COMPOUND": "COc1cccc(CN2CCN(Cc3ccon3)CC2CCO)c1 (stereo not shown)", "MEASUREMENT_TARGET": "human ether-à-go-go-related gene (hERG) potassium channel (human, UniProt Q12809)", "OBSERVED_RESULT": "0.227%"}
{"COMPOUND": "CC(C)Nc1ccc(Nc2ccccc2)cc1", "MEASUREMENT_TARGET": "human ether-à-go-go-related gene (hERG) potassium channel (human, UniProt Q12809)", "OBSERVED_RESULT": "-0.32%"}
{"COMPOUND": "O=C(CCN1CCCCCC1)Nc1ccc2c(c1)OCCO2.O=C(O)C(=O)O", "MEASUREMENT_TARGET": "human ether-à-go-go-related gene (hERG) potassium channel (human, UniProt Q12809)", "OBSERVED_RESULT": "-1.98%"}

INPUT: Param item = `CCOc1ccc(NC(=O)CCC(=O)OC)cc1` ; retrieve measured hERG current change (%, negative = inhibition) at 10uM.
OUTPUT: -1.95%

INPUT: What would you report for `Cc1[nH]c2ccccc2c1/C=N/NC(=O)CNC(=O)c1ccccc1` ?
OUTPUT: -9.38%

INPUT: What would you report for CCC(=O)NC(NC(=S)Nc1ccc(S(N)(=O)=O)cc1)C(Cl)(Cl)Cl (stereo not shown) ?
OUTPUT: -1.3%

INPUT: What would you report for `O=[N+]([O-])c1ccc(C[n+]2cc(-c3ccc(Cl)c(Cl)c3)n3c2CCCCC3)cc1.[Br-]` ?
OUTPUT: -15.7%

INPUT: What would you report for CCCCNC(=O)N(O)C1N(/N=C/c2ccccc2F)C(=S)SC1(C)C (stereo not shown) ?
OUTPUT: 16.5%

INPUT: What would you report for `CCOc1ccc(-c2cc(N)n(S(=O)(=O)c3ccc(OC)cc3)n2)cc1` ?
OUTPUT: 10.7%

INPUT: What would you report for CC1CC(C)CN(C(=O)c2cc3ccccc3o2)C1 (stereo not shown) ?
OUTPUT: -2.2%

INPUT: What would you report for `CC(C)Nc1ccc(Nc2ccnc3cc4ccccc4cc23)cc1` ?
OUTPUT: -72.7%

INPUT: What would you report for CCOc1ccccc1CN1CCN(Cc2cccc3nonc23)CC1CCO (stereo not shown) ?
OUTPUT: -73.3%

INPUT: What would you report for `COC(=O)c1cnn(-c2ccc(Cl)cc2)c1/C=N/NC(N)=S` ?
OUTPUT: 7.44%
